Biological target: C5a anaphylatoxin chemotactic receptor 1 (Homo sapiens)
Sequence (P21730 whole entry): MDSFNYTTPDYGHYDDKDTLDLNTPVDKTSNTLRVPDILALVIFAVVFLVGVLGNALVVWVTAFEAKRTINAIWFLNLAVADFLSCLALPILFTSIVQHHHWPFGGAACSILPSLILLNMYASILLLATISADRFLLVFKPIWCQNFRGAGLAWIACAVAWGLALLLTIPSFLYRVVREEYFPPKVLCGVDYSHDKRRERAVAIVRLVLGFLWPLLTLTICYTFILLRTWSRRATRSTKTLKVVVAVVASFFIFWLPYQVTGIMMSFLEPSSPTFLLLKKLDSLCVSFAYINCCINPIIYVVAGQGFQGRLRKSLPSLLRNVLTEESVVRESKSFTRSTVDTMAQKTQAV
Experiment: Ability to inhibit binding of radiolabeled C5a anaphylatoxin to intact membrane bound receptor from human neutrophils.
pIC50: −log10 of the molar value.
measuredMetric: pIC50

See these solved cases before continuing.
                                  smilesstr                            targetorsystem  measuredmetric  testvalue
0       Cc1cc(N)c2cc(C(=O)NCc3ccccc3)ccc2n1  C5a anaphylatoxin chemotactic receptor 1 (Homo sapiens)           pIC50     < 3.46
1  Cc1cc(N)c2cc(NC(=O)CCCCC(=O)Nc3ccc4nc(C)cc(N)c4c3)ccc2n1  C5a anaphylatoxin chemotactic receptor 1 (Homo sapiens)           pIC50     < 3.96
2        Cc1cc(N)c2cc(NC(=O)c3ccccc3)ccc2n1  C5a anaphylatoxin chemotactic receptor 1 (Homo sapiens)           pIC50     < 3.44
3  CCCCCCCCNc1cc(C)nc2ccc(NC(=O)/C=C/c3ccccc3Cl)cc12  C5a anaphylatoxin chemotactic receptor 1 (Homo sapiens)           pIC50     < 3.65
4      Cc1cc(N)c2cc(NC(=O)CCc3ccccc3)ccc2n1  C5a anaphylatoxin chemotactic receptor 1 (Homo sapiens)           pIC50     < 3.48
5  Cc1ccc2cc(NC(=O)Nc3ccc4nc(C)ccc4c3)ccc2n1  C5a anaphylatoxin chemotactic receptor 1 (Homo sapiens)           pIC50     < 3.84

Batch: pIC50 for all items listed.
1. CCCCCCCCNC(=O)c1ccc2nc(C)cc(N)c2c1
2. Cc1cc(NCc2ccccc2)c2cc(NC(=O)/C=C/c3ccccc3Cl)ccc2n1
3. COc1cc(C)nc2ccc(NC(=O)/C=C/c3ccccc3Cl)cc12
4. Cc1cc(NCc2ccccc2)c2cc(NC(=O)/C=C/c3ccccc3C(F)(F)F)ccc2n1
5. Cc1cc(NCc2ccccc2)c2cc(NC(=O)C(=O)Nc3ccc4nc(C)cc(NCc5ccccc5)c4c3)ccc2n1
6. CCCC(=O)Nc1ccc2nc(C)cc(N)c2c1
7. Cc1cc(N)c2cc(NC(=O)CCCCCCCCC(=O)Nc3ccc4nc(C)cc(N)c4c3)ccc2n1
8. Cc1cc(N)c2cc(N)ccc2n1

Result:
1. < 3.50
2. < 3.63
3. < 3.85
4. < 3.66
5. < 4.06
6. < 3.39
7. < 4.01
8. < 3.24

Task: # input compound: Cc1cc(NCc2ccccc2)c2cc(N)ccc2n1 ; wanted: its pIC50
Result: < 3.42
